# settings: bacteroides thetaiotaomicron, 12 h, 2 µM
# Description: The drug is tested on Bacteroides thetaiotaomicron strain: 7330 for biotransformation. The drug concentrations were measured before and after a 12-h incubation by liquid-chromatography-coupled mass spectrometry (LC–MS)
observed-property: Bacterial Biotransformation

# annotated cases, reported Bacterial Biotransformation shown
compound	Bacterial Biotransformation
CCCCCCOC(=O)/N=C(/N)c1ccc(NCc2nc3cc(C(=O)N(CCC(=O)OCC)c4ccccn4)ccc3n2C)cc1.CS(=O)(=O)O [DABIGATRAN ETEXILATE MESYLATE]	Compound NOT metabolized
CN1CCc2cccc3c2[C@H]1Cc1ccc(O)c(O)c1-3 [APOMORPHINE]	Compound NOT metabolized
CCOc1cc(CC(=O)N[C@@H](CC(C)C)c2ccccc2N2CCCCC2)ccc1C(=O)O [REPAGLINIDE]	Compound metabolized
CNC(=C[N+](=O)[O-])NCCSCc1csc(CN(C)C)n1 [NIZATIDINE]	Compound metabolized
Nc1nc(N)nc(-c2cc(Cl)ccc2Cl)n1.O=C(O)/C=C\C(=O)O [IRSOGLADINE MALEATE]	Compound NOT metabolized

Q: What measured Bacterial Biotransformation goes with Cc1nc2n(c(=O)c1CCN1CCC(c3noc4cc(F)ccc34)CC1)CCCC2O (stereo not drawn) [PALIPERIDONE] ?
Result: Compound NOT metabolized

Q: How about this compound: CN1C(C(=O)Nc2ccccn2)=C(O)c2sccc2S1(=O)=O [TENOXICAM]
Result: Compound NOT metabolized

Q: How about this compound: Nc1ccc(/N=N/c2ccccc2)c(N)n1 [PHENAZOPYRIDINE]
Result: Compound metabolized

Q: How about this compound: C[C@]12C=CC(=O)C=C1CC[C@@H]1[C@@H]2C(=O)C[C@@]2(C)[C@H]1CC[C@]2(O)C(=O)CO [PREDNISONE]
Result: Compound NOT metabolized

Q: How about this compound: CCCCC(=O)N(Cc1ccc(-c2ccccc2-c2nnn[nH]2)cc1)[C@H](C(=O)O)C(C)C
Result: Compound metabolized

Q: How about this compound: CCC1(c2ccc(N)cc2)CCC(=O)NC1=O (stereo not drawn) [AMINOGLUTETHIMIDE]
Result: Compound NOT metabolized

Q: How about this compound: CCCN1C[C@H](CSC)C[C@@H]2c3cccc4[nH]cc(c34)C[C@H]21.CS(=O)(=O)O [PERGOLIDE MESYLATE]
Result: Compound NOT metabolized

Data provenance: ChEMBL document CHEMBL5303573
